# Tested on: Staphylococcus aureus
# assay explanation: Antibacterial activity against Staphylococcus aureus MTCC 1430 by serial dilution method
# Assay type: functional
# Set-up: scale not given here
Provide the reported -logMIC of each item.
Keep the answer to the number alone.

## Task GET /values?readout=-logMIC&item= `COc1ccc(C(=O)Nc2cccc(O)c2)cc1OC`
## Result 1.2

## Task GET /values?readout=-logMIC&item= `CNC(=O)c1ccc(OC)c(OC)c1`
## Result 0.95

## Task GET /values?readout=-logMIC&item= `CCCCCCOC(=O)c1ccc(OC)c(OC)c1`
## Result 1.2

## Task GET /values?readout=-logMIC&item= `COc1ccc(C(=O)Nc2ccccc2)cc1OC`
## Result 1.05

## Task GET /values?readout=-logMIC&item= `COc1ccc(C(=O)Nc2ccc([N+](=O)[O-])cc2)cc1OC`
## Result 1.25

## Task GET /values?readout=-logMIC&item= `COc1ccc(C(=O)N(C)C)cc1OC`
## Result 1.08

## Task GET /values?readout=-logMIC&item= `COc1ccc(C(=O)Nc2ccc(Br)cc2)cc1OC`
## Result 1.25

###

# Tested on: Aspergillus niger
# assay explanation: Antifungal activity against Aspergillus niger MTCC 2425 by serial dilution method
# Type: functional
# Set-up: scale not given here
Provide the reported -logMIC of each item.
Keep the answer to the number alone.

## Task GET /values?readout=-logMIC&item= `COc1ccc(C(=O)N(C)C)cc1OC`
## Result 1.31

## Task GET /values?readout=-logMIC&item= `COc1ccc(C(=O)OCc2ccccc2)cc1OC`
## Result 1.29

## Task GET /values?readout=-logMIC&item= `COc1ccc(C(=O)Oc2ccccc2)cc1OC`
## Result 1.34

## Task GET /values?readout=-logMIC&item= `COc1ccc(C(=O)N2CCCCC2)cc1OC`
## Result 1.28

## Task GET /values?readout=-logMIC&item= `COc1ccc(C(=O)Nc2ccc([N+](=O)[O-])cc2)cc1OC`
## Result 1.35

## Task GET /values?readout=-logMIC&item= `COc1ccc(C(=O)OC(C)(C)C)cc1OC`
## Result 1.3

## Task GET /values?readout=-logMIC&item= `CCCOC(=O)c1ccc(OC)c(OC)c1`
## Result 1.2

## Task GET /values?readout=-logMIC&item= `CCCCCCOC(=O)c1ccc(OC)c(OC)c1`
## Result 1.28

## Task GET /values?readout=-logMIC&item= `CCCCCOC(=O)c1ccc(OC)c(OC)c1`
## Result 1.1

## Task GET /values?readout=-logMIC&item= `COc1ccc(C(=O)NN)cc1OC`
## Result 1.12

## Task GET /values?readout=-logMIC&item= `COc1ccc(C(=O)Nc2ccc(C)cc2)cc1OC`
## Result 1.35

## Task GET /values?readout=-logMIC&item= `CCCCCCCOC(=O)c1ccc(OC)c(OC)c1`
## Result 1.37

## Task GET /values?readout=-logMIC&item= `COc1ccccc1NC(=O)c1ccc(OC)c(OC)c1`
## Result 1.32

## Task GET /values?readout=-logMIC&item= `COc1ccc(C(=O)OCCC(C)C)cc1OC`
## Result 1.3

## Task GET /values?readout=-logMIC&item= `CCOC(=O)c1ccc(OC)c(OC)c1`
## Result 1.23

## Task GET /values?readout=-logMIC&item= `COc1ccc(C(=O)Nc2ccccc2)cc1OC`
## Result 1.29

## Task GET /values?readout=-logMIC&item= `COc1ccc(C(N)=O)cc1OC`
## Result 1.2

## Task GET /values?readout=-logMIC&item= `COC(=O)c1ccc(OC)c(OC)c1`
## Result 1.15

## Task GET /values?readout=-logMIC&item= `COc1ccc(NC(=O)c2ccc(OC)c(OC)c2)cc1`
## Result 1.4

## Task GET /values?readout=-logMIC&item= `COc1ccc(C(=O)O)cc1OC`
## Result 1.11

## Task GET /values?readout=-logMIC&item= `CCCNC(=O)c1ccc(OC)c(OC)c1`
## Result 1.28

## Task GET /values?readout=-logMIC&item= `CCNC(=O)c1ccc(OC)c(OC)c1`
## Result 1.26

## Task GET /values?readout=-logMIC&item= `COc1ccc(C(=O)N(CCO)CCO)cc1OC`
## Result 1.36

## Task GET /values?readout=-logMIC&item= `COc1ccc(C(=O)Nc2ccc(Cl)cc2)cc1OC`
## Result 1.3

## Task GET /values?readout=-logMIC&item= `COc1ccc(C(=O)Nc2ccc(Br)cc2)cc1OC`
## Result 1.44

## Task GET /values?readout=-logMIC&item= `COc1ccc(C(=O)Nc2ccccc2C)cc1OC`
## Result 1.4

## Task GET /values?readout=-logMIC&item= `COc1ccc(C(=O)N2CCOCC2)cc1OC`
## Result 1.33

## Task GET /values?readout=-logMIC&item= `CCCCOC(=O)c1ccc(OC)c(OC)c1`
## Result 1.15

## Task GET /values?readout=-logMIC&item= `COc1ccc(C(=O)NCc2ccccc2)cc1OC`
## Result 1.36

## Task GET /values?readout=-logMIC&item= `OC(Cn1cncn1)(Cn1cncn1)c1ccc(F)cc1F`
## Result 2.64

## Task GET /values?readout=-logMIC&item= `COc1ccc(C(=O)NCCO)cc1OC`
## Result 1.29

###

# Test system: Bacillus subtilis
# assay explanation: Antibacterial activity against Bacillus subtilis MTCC 2423 by serial dilution method
# Type: functional
# Parameters: unit not given here
Provide the reported -logMIC of each item.
Keep the answer to the number alone.

## Task GET /values?readout=-logMIC&item= `COc1ccc(NC(=O)c2ccc(OC)c(OC)c2)cc1`
## Result 1.38

## Task GET /values?readout=-logMIC&item= O=C(O)c1cn(C2CC2)c2cc(N3CCNCC3)c(F)cc2c1=O [CIPROFLOXACIN]
## Result 3.33

## Task GET /values?readout=-logMIC&item= `COc1ccc(C(=O)Nc2ccc([N+](=O)[O-])cc2)cc1OC`
## Result 1.41

## Task GET /values?readout=-logMIC&item= `COc1ccc(C(=O)OCc2ccccc2)cc1OC`
## Result 1.34

## Task GET /values?readout=-logMIC&item= `COc1ccc(C(=O)Nc2ccccc2)cc1OC`
## Result 1.25

## Task GET /values?readout=-logMIC&item= `COc1ccc(C(=O)Oc2ccccc2)cc1OC`
## Result 1.27

###

# Tested on: Escherichia coli
# assay explanation: Antibacterial activity against Escherichia coli MTCC 739 by serial dilution method
# Format: functional
# study conditions: Escherichia coli, MTCC 739; read-out: MIC
readout label: MIC (µg/mL)
A number alone suffices; assume µg/mL.

## Task GET /values?readout=MIC&item= `COc1ccc(C(=O)NN)cc1OC`
## Result 23

## Task GET /values?readout=MIC&item= `CCCCCCOC(=O)c1ccc(OC)c(OC)c1`
## Result 16

## Task GET /values?readout=MIC&item= `COc1ccc(C(=O)OCc2ccccc2)cc1OC`
## Result 18

## Task GET /values?readout=MIC&item= `CCCCCCCOC(=O)c1ccc(OC)c(OC)c1`
## Result 14

## Task GET /values?readout=MIC&item= `COc1ccc(C(=O)Nc2ccccc2)cc1OC`
## Result 23

## Task GET /values?readout=MIC&item= `COc1ccc(C(=O)Oc2cccc3cccnc23)cc1OC`
## Result 8.5

## Task GET /values?readout=MIC&item= `COc1ccc(C(=O)N(C)C)cc1OC`
## Result 15

## Task GET /values?readout=MIC&item= `COc1ccc(C(=O)Nc2cccc(Cl)c2)cc1OC`
## Result 17

## Task GET /values?readout=MIC&item= `COc1ccc(C(=O)Nc2ccc(C)cc2)cc1OC`
## Result 17

## Task GET /values?readout=MIC&item= `COc1ccc(C(=O)OC(C)C)cc1OC`
## Result 14

## Task GET /values?readout=MIC&item= `COc1ccc(C(=O)Nc2ccc([N+](=O)[O-])cc2)cc1OC`
## Result 21

## Task GET /values?readout=MIC&item= `CCCCCOC(=O)c1ccc(OC)c(OC)c1`
## Result 20

## Task GET /values?readout=MIC&item= `COc1ccc(C(=O)N2CCCCC2)cc1OC`
## Result 20

## Task GET /values?readout=MIC&item= `COc1ccc(C(=O)Nc2ccccc2C)cc1OC`
## Result 18.5

## Task GET /values?readout=MIC&item= `COc1ccc(C(=O)Nc2cccc(C)c2)cc1OC`
## Result 17

## Task GET /values?readout=MIC&item= `CCCOC(=O)c1ccc(OC)c(OC)c1`
## Result 12.5

## Task GET /values?readout=MIC&item= `CCCNC(=O)c1ccc(OC)c(OC)c1`
## Result 19

## Task GET /values?readout=MIC&item= `COC(=O)c1ccc(OC)c(OC)c1`
## Result 18

## Task GET /values?readout=MIC&item= `CCNC(=O)c1ccc(OC)c(OC)c1`
## Result 20

## Task GET /values?readout=MIC&item= `CCCCOC(=O)c1ccc(OC)c(OC)c1`
## Result 19

## Task GET /values?readout=MIC&item= `COc1ccc(C(=O)N(CCO)CCO)cc1OC`
## Result 16.5

## Task GET /values?readout=MIC&item= `COc1ccc(C(=O)Nc2cccc(O)c2)cc1OC`
## Result 19

## Task GET /values?readout=MIC&item= `COc1ccc(C(=O)O)cc1OC`
## Result 16

## Task GET /values?readout=MIC&item= `COc1ccc(C(=O)Nc2ccc(Cl)cc2)cc1OC`
## Result 12

## Task GET /values?readout=MIC&item= `COc1ccc(C(=O)Nc2ccccc2Cl)cc1OC`
## Result 17

## Task GET /values?readout=MIC&item= `COc1ccc(C(=O)Nc2ccc(Br)cc2)cc1OC`
## Result 19

## Task GET /values?readout=MIC&item= `COc1ccc(C(=O)NCc2ccccc2)cc1OC`
## Result 19

## Task GET /values?readout=MIC&item= `COc1ccc(C(=O)OC(C)(C)C)cc1OC`
## Result 20

## Task GET /values?readout=MIC&item= `COc1ccc(C(=O)OCCC(C)C)cc1OC`
## Result 16

## Task GET /values?readout=MIC&item= `CNC(=O)c1ccc(OC)c(OC)c1`
## Result 17

## Task GET /values?readout=MIC&item= `COc1ccc(NC(=O)c2ccc(OC)c(OC)c2)cc1`
## Result 19

## Task GET /values?readout=MIC&item= `COc1ccc(C(N)=O)cc1OC`
## Result 20

## Task GET /values?readout=MIC&item= `COc1ccc(C(=O)Oc2ccccc2)cc1OC`
## Result 16
